These entries and their values trace back to the supplement of paper PMC8728848.

measured target: Gal(b1-4)GlcNAc(b1-3)Gal(b1-3)GlcNAc
procedure text: glycan array binding signal (z-score within array); higher = stronger binding
applied conditions: glycan notation: IUPAC condensed, linker removed
Shown is part of a subset that was picked to be rich in the strongest signals.
The threshold is inclusive: glycan array binding signal (z-score) of exactly -0.1 counts as yes; values below receive no.

[[record]]
binder = "PfulAvr4 (Pseudocercospora fuligena) (protein) HHHHHHDYKDDDDKTYVQDKTPAFVCPAADIKTTKCLGPKDCLYPSPKTCNGYIQCSPADDSYLTGIIHEMPCPSGLLWNDNKKWCDWPENTTCGLVKSAGATEVDATKQGPTPGKYHG"
label = "yes"

[[record]]
binder = "Epa1to9 (Candida glabrata) (protein) MGSSHHHHHHSSGLVPRGSHMTSSNDISLASKDPTTFPLGCSPDITTPKKGLSMELYSYDFRKKGSYPCWDAAYLDPNYPRTGYKSHRLLAKVDGVTGNINFYYHATKGCTPQLGHLPASYNYPKPLTMTNFTMLLYGYFRPKVTGFHTFTISADDLLFVNFGAGNAFDCCRRDSSADHFGNYQAYAIWGSKTAKDELTVHLDAGVYYPIRLFYNNRDYHGALSFTFKTESNENTVSDFSEYFFSLDDTEEGCPGLISYD"
label = "no"

[[record]]
binder = "Epa2 (Candida glabrata) (protein) MGSSHHHHHHSSGLVPRGSHMASSKDPTSFPMGCSPQVLKTQPGLAVKLYSYGHPVPGCAYNTYQYPDFPRSGYKKERKLADITGVNGRIDIDLKPNDPCRVLSGNLPSNYNYQNTLTYTNFTMILYGYFQPKVTGYHTFNLEADDLLFMNLGAGNAFDCCRAESTLDNFGNYQSYSIWGTDKATADLTVFLVSGIYYPIRLFYVNRDNNAVLDFSFSTEFNKEIIHDFTSYFFSASDEEQCPGNI"
label = "no"

[[record]]
binder = "EfCBM33A (Enterococcus faecalis), Q838S1 (protein) MKKSLLTIVLAFSFVLGGAALAPTVSEAHGYVASPGSRAFFGSSAGGNLNTNVGRAQWEPQSIEAPKNTFITGKLASAGVSGFEPLDEQTATRWHKTNITTGPLDITWNLTAQHRTASWDYYITKNGWNPNQPLDIKNFDKIASIDGKQEVPNKVVKQTINIPTDRKGYHVIYAVWGIGDTVNAFYQAIDVNIQ"
label = "no"

[[record]]
binder = "Epa1 (Candida glabrata) (protein) MGSSHHHHHHSSGLVPRGSHMTSSNDISLASKDPTTFPLGCSPDITTPKKGLSMELYSYDFRKKGSYPCWDAAYLDPNYPRTGYKSHRLLAKVDGVTGNINFYYHATKGCTPQLGHLPASYNYPKPLTMTNFTMLLYGYFRPKVTGFHTFTISADDLLFVNFGAGNAFDCCRRDSSADHFGNYQAYAIWGSKTAKDELTVHLDAGVYYPIRLFYNNREYDGALSFTFKTESNENTVSDFSEYFFSLDDTEEGCPGLISYD"
label = "no"


Prompt: Check this binder for glycan array binding signal (z-score) at or above -0.1: PEB1 (Campylobacter jejuni), Q0P9X8 (protein) MVFRKSLLKLAVFALGACVAFSNANAAEGKLESIKSKGQLIVGVKNDVPHYALLDQATGEIKGFEVDVAKLLAKSILGDDKKIKLVAVNAKTRGPLLDNGSVDAVIATFTITPERKRIYNFSEPYYQDAIGLLVLKEKKYKSLADMKGANIGVAQAATTKKAIGEAAKKIGIDVKFSEFPDYPSIKAALDAKRVDAFSVDKSILLGYVDDKSEILPDSFEPQSYGIVTKKDDPAFAKYVDDFVKEHKNEIDALAKKWGL
Response: yes

Prompt: Also CBM13 2a (Mycobacterium tuberculosum), P64849 (protein) DGPVQLKSRLGDVCLDAPSGSWFSPLVINPCNGTDFQRWNLTDDRQVESVAFPGECVNIGNALWARLQPCVNWISQHWTVQPDGLVKSDLDACLTVLGGPDPGTWVSTRWCDPNAPDQQWDSVPLEHHHHHH ?
Response: no
